assay.target: Factor X (FX), P00742
Sequence (P00742 whole entry, looked up): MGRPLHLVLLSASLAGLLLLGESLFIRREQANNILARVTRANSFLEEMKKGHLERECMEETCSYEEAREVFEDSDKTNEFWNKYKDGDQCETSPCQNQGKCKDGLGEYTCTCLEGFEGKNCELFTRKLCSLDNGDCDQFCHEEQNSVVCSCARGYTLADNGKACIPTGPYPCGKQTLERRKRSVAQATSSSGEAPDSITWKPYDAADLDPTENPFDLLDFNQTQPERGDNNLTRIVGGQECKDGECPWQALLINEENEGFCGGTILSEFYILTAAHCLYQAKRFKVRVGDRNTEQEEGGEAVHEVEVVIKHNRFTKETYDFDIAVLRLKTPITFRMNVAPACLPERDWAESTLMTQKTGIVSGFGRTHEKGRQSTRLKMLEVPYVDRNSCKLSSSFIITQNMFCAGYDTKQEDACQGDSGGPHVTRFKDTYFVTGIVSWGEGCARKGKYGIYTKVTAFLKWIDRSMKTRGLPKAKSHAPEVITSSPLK
Some proteins, each annotated with its measured KM (FX activation by FIXa in the Xase complex with FVIIIa, PC/PS vesicles and Ca2+).
State just the number; it will be interpreted in µM.

protein | unit.tag | experimental.value
FIXa I251S/R318Y/R338E/E410N (protein) chain 1: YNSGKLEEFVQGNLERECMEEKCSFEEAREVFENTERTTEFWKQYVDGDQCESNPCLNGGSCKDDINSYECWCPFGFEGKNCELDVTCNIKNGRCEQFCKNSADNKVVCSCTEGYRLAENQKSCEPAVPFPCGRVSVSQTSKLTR chain 2: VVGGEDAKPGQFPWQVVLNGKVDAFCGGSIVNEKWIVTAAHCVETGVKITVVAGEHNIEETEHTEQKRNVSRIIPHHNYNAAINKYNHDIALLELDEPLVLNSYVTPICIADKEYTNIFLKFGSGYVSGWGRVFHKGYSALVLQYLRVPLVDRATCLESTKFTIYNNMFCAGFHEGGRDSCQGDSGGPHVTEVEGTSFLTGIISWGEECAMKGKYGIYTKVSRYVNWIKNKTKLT | µM | 0.0161
FIXa Y155F/K247N/N249S/R318Y/R338E/E410N (protein) chain 1: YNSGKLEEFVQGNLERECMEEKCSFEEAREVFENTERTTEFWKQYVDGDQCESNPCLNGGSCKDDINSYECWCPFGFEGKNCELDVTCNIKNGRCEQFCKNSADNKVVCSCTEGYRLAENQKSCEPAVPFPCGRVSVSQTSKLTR chain 2: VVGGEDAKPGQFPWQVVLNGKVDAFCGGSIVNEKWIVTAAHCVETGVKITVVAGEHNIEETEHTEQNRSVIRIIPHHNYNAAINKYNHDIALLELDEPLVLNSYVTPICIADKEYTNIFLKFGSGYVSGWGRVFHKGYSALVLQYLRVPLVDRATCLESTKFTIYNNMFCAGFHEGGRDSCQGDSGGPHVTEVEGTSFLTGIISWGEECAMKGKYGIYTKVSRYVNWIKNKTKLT | µM | 0.0147
FIXa D104N/K106S/K247N/N249S/R318Y/R338E/R403E/E410N (protein) chain 1: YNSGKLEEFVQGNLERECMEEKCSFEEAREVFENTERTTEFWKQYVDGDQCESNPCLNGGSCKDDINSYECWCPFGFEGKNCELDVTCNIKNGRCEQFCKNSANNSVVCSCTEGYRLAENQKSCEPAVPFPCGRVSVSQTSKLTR chain 2: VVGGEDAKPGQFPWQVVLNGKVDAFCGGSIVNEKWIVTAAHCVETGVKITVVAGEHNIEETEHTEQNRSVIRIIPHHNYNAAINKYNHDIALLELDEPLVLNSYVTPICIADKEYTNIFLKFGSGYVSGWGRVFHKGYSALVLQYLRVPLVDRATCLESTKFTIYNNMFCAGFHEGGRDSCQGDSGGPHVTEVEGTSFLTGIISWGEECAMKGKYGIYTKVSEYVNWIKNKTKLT | µM | 0.059

Let us examine a further case.
For FIXa K247N/N249S/R318Y/R338E/E410N (protein) chain 1: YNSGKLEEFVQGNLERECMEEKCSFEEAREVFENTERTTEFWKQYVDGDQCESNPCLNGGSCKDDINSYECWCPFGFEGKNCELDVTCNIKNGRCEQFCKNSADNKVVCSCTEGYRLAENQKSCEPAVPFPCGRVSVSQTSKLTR chain 2: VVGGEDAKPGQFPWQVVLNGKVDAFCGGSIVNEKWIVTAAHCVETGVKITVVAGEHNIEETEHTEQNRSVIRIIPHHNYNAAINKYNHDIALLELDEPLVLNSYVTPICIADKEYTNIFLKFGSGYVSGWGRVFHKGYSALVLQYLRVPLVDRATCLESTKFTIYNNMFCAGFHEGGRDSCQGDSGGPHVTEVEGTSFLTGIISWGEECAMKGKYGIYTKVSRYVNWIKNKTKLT , what is its reported KM (FX activation by FIXa in the Xase complex with FVIIIa, PC/PS vesicles and Ca2+)?
0.0166
